- tgt: influenza A virus minigenome (PB2, PB1, PA, NP proteins) (UniProt P04665)
- Sequence (P04665 whole entry): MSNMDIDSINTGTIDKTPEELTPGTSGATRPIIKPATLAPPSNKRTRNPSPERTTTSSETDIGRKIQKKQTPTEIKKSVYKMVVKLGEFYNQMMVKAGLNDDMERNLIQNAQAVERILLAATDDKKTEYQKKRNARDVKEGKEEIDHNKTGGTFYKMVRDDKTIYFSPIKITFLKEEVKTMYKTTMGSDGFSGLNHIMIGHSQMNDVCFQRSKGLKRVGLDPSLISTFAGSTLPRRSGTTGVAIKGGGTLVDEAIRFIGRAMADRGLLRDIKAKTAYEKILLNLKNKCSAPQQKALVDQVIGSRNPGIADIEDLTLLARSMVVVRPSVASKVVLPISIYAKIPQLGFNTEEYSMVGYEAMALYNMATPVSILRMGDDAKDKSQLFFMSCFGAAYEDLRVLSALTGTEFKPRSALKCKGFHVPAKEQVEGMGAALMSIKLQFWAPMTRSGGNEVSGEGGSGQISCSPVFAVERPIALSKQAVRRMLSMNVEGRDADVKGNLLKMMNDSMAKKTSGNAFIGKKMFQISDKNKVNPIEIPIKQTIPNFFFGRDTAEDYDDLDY
- Type: cell-based
- conditions_used: read-out: RNP_ Hubei B IC50
pIC50: −log10 of the molar value.
metric_name: pIC50

Please review the entries below; each comes with its answer.
| molecule_smiles | metric_name | val |
| --- | --- | --- |
| CN(C)C[C@]1(C)COC[C@@H](COc2ccc(-c3cc(C(N)=O)c(=O)[nH]c3C(F)(F)F)cc2)O1 | pIC50 | 5.00 to 5.30 |
| COC[C@@]1(CF)COC[C@@H](COc2ccc(-c3cc(C(N)=O)c(=O)[nH]c3C(F)(F)F)cc2)O1 | pIC50 | 5.00 to 5.30 |

Sample CCn1cc(COc2ccc(-c3cc(C(N)=O)c(=O)[nH]c3C(F)(F)F)cc2)cn1 — what was its pIC50?
4.30 to 4.60

Sample CC(C)OC[C@H]1COC[C@@H](COc2ccc(-c3cc(C(N)=O)c(=O)[nH]c3C(F)(F)F)cc2)O1 — what was its pIC50?
5.00 to 5.30

---

Listed next: entries and their corresponding pIC50.
- tgt: influenza A virus minigenome (PB2, PB1, PA, NP proteins) (UniProt P04665)
- Assay type: cell-based
- conditions_used: read-out: RNP_ Hubei B IC50
pIC50: −log10 of the molar value.

Please review the entries below; each comes with its answer.
| compound | tgt | pIC50 |
| --- | --- | --- |
| NC(=O)c1cc(-c2ccc(OCC3COCC(COCC4(F)CC4)O3)cc2)c(C(F)(F)F)[nH]c1=O (single isomer, unassigned) [Example 365] | influenza A virus minigenome (PB2, PB1, PA, NP proteins) (UniProt P04665) | 5.00 to 5.30 |
| COCCOc1ccc(-c2cc(C(N)=O)c(=O)[nH]c2C(F)(F)F)cc1 [Example 254] | influenza A virus minigenome (PB2, PB1, PA, NP proteins) (UniProt P04665) | 4.30 to 4.60 |

Sample NC(=O)c1cc(-c2ccc(OC[C@@H]3COCC4(COCCOC4)O3)cc2)c(C(F)(F)F)[nH]c1=O [Example 416] — what was its pIC50?
5.00 to 5.30

---

- tgt: influenza A virus minigenome (PB2, PB1, PA, NP proteins) (UniProt P04665)
- Assay type: cell-based
- conditions_used: read-out: RNP_ Hubei B IC50
Listed next: entries and their corresponding IC50.

Please review the entries below; each comes with its answer.
| compound | IC50 |
| --- | --- |
| C[C@]1(COCC(F)F)COC[C@@H](COc2ccc(-c3cc(C(N)=O)c(=O)[nH]c3C(F)(F)F)cc2)O1 | 5 to 10 µM |
| NC(=O)c1cc(-c2ccc(OCC3COC(C(F)F)CO3)cc2)c(C(F)(F)F)[nH]c1=O (single isomer, unassigned) [Example 347] | 5 to 10 µM |

Sample COC[C@@]1(CCl)COC[C@@H](COc2ccc(-c3cc(C(N)=O)c(=O)[nH]c3C(F)(F)F)cc2)O1 — what was its IC50?
5 to 10 µM

---

Listed next: entries and their corresponding pIC50.
- tgt: influenza A virus minigenome (PB2, PB1, PA, NP proteins) (UniProt P04665)
- Format: cell-based
- conditions_used: read-out: RNP_ Hubei B IC50
pIC50: −log10 of the molar value.

Please review the entries below; each comes with its answer.
| compound | tgt | pIC50 |
| --- | --- | --- |
| CN1CCOCC1COc1ccc(-c2cc(C(N)=O)c(=O)[nH]c2C(F)(F)F)cc1 (centres unmarked) [Example 247] | influenza A virus minigenome (PB2, PB1, PA, NP proteins) (UniProt P04665) | 4.30 to 4.60 |
| C[C@]1(COC(F)F)COC[C@@H](COc2ccc(-c3cc(C(N)=O)c(=O)[nH]c3C(F)(F)F)cc2)O1 [Example 425] | influenza A virus minigenome (PB2, PB1, PA, NP proteins) (UniProt P04665) | 5.00 to 5.30 |

Sample NC(=O)c1cc(-c2ccc(OCc3cocn3)cc2)c(C(F)(F)F)[nH]c1=O [Example 266] — what was its pIC50?
4.30 to 4.60

Sample NC(=O)c1cc(-c2ccc(OCC3COCC4(CC4)O3)cc2)c(C(F)(F)F)[nH]c1=O (single isomer, unassigned) [Example 335] — what was its pIC50?
5.00 to 5.30

Sample C[C@@H]1COC[C@@H](COc2ccc(-c3cc(C(N)=O)c(=O)[nH]c3C(F)(F)F)cc2)O1 [Example 329] — what was its pIC50?
4.30 to 4.60
